procedure text: mRNA encapsulation efficiency of lipid nanoparticles (RiboGreen assay)
Assay type: physicochemical
cond: hEPO mRNA LNP, Process A, Cationic Lipid:DMG-PEG2000:Cholesterol:DOPE 40:1.5:28.5:30 mol %, N/P 4
Kindly supply the reported Encapsulation efficiency (EE) % values for the records listed here.
Report the value in % with no unit label.

Check the records and state Encapsulation efficiency (EE) % for CCCCCCCCCCCCC(O)CN(CCCCC(=O)O[C@@H]1CO[C@H]2[C@@H]1OC[C@H]2OC(=O)CCCCN(CC(O)CCCCCCCCCCCC)CC(O)CCCCCCCCCCCC)CC(O)CCCCCCCCCCCC (some centres unmarked)
75

Check the records and state Encapsulation efficiency (EE) % for CCCCCCCCC(O)CN(CCCC(=O)O[C@H]1CO[C@H]2[C@@H]1OC[C@H]2OC(=O)CCCN(CC(O)CCCCCCCC)CC(O)CCCCCCCC)CC(O)CCCCCCCC (some centres unmarked)
89

Check the records and state Encapsulation efficiency (EE) % for CCCCCCCCCCC(O)CN(CCCC(=O)N[C@H]1CO[C@H]2[C@@H]1OC[C@@H]2NC(=O)CCCN(CC(O)CCCCCCCCCC)CC(O)CCCCCCCCCC)CC(O)CCCCCCCCCC (some centres unmarked)
95

Check the records and state Encapsulation efficiency (EE) % for CCCCCCCCCCC(O)CN(CCCCC(=O)O[C@@H]1CO[C@H]2[C@@H]1OC[C@H]2OC(=O)CCCCN(CC(O)CCCCCCCCCC)CC(O)CCCCCCCCCC)CC(O)CCCCCCCCCC (some centres unmarked)
94

Check the records and state Encapsulation efficiency (EE) % for CCCCCCCCCCC(O)CN(CCCC(=O)O[C@H]1CO[C@H]2[C@@H]1OC[C@H]2OC(=O)CCCN(CC(O)CCCCCCCCCC)CC(O)CCCCCCCCCC)CC(O)CCCCCCCCCC (some centres unmarked) [Compound 24]
83
